# assayed.target: Glycogen phosphorylase, muscle form (Oryctolagus cuniculus) (UniProt P00489)
# Sequence (P00489 whole entry, looked up): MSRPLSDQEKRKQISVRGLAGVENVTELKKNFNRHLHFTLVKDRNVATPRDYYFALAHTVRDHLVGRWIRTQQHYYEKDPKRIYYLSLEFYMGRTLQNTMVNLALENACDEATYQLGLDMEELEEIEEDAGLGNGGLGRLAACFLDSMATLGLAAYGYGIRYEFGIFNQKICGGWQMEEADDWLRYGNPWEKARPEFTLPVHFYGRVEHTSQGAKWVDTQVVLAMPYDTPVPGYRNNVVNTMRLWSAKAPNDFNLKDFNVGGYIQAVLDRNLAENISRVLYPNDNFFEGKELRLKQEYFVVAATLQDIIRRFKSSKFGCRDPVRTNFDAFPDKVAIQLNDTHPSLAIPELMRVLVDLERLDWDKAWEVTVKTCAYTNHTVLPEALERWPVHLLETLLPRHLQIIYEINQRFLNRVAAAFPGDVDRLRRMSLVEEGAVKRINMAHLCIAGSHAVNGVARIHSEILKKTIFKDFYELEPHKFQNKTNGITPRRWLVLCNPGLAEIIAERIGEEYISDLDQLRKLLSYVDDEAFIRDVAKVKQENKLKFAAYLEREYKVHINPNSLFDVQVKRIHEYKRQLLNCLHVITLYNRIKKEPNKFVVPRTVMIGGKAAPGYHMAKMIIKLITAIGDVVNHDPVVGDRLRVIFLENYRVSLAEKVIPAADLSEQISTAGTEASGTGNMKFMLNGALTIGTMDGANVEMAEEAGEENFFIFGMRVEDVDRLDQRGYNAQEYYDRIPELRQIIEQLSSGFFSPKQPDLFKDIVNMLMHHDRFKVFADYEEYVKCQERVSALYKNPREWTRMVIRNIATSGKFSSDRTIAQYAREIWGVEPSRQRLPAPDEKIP
# assay.summary: Tested for inhibition constant against glycogen phosphorylase b
# Set-up: scale not given here
readout.label: Exp Inhib Constant

[
  {
    "molecule": "N#CC[C@]1(O)O[C@H](CO)[C@@H](O)[C@H](O)[C@H]1O",
    "readout.label": "Exp Inhib Constant",
    "quantitative.result": 2.03
  },
  {
    "molecule": "O=C(CCl)N[C@H]1O[C@H](CO)[C@@H](O)[C@H](O)[C@H]1O",
    "readout.label": "Exp Inhib Constant",
    "quantitative.result": -3.22
  },
  {
    "molecule": "[N-]=[N+]=NC[C@@H]1O[C@H](CO)[C@@H](O)[C@H](O)[C@H]1O",
    "readout.label": "Exp Inhib Constant",
    "quantitative.result": 2.72
  },
  {
    "molecule": "NNC(=O)[C@@H]1O[C@H](CO)[C@@H](O)[C@H](O)[C@H]1O (stereo in doubt; 35)",
    "readout.label": "Exp Inhib Constant",
    "quantitative.result": -0.92
  },
  {
    "molecule": "NC(=O)C1OC(CO)C(O)C(O)C1O (stereo in doubt; 20)",
    "readout.label": "Exp Inhib Constant",
    "quantitative.result": -0.99
  },
  {
    "molecule": "NCCC1OC(CO)C(O)C(O)C1O (configuration not stated)",
    "readout.label": "Exp Inhib Constant",
    "quantitative.result": 1.5
  },
  {
    "molecule": "CO[C@H]1O[C@H](CO)[C@H](O)[C@H](O)[C@H]1O",
    "readout.label": "Exp Inhib Constant",
    "quantitative.result": 2.49
  },
  {
    "molecule": "[N-]=[N+]=NC[C@@]1(O)O[C@@H](CO)[C@@H](O)[C@H](O)[C@@H]1O",
    "readout.label": "Exp Inhib Constant",
    "quantitative.result": 2
  },
  {
    "molecule": "NC(=O)C1OC(CO)C(O)C(O)C1O (stereo in doubt; 27)",
    "readout.label": "Exp Inhib Constant",
    "quantitative.result": -0.82
  },
  {
    "molecule": "NC(=O)CS[C@H]1O[C@H](CO)[C@@H](O)[C@H](O)[C@H]1O",
    "readout.label": "Exp Inhib Constant",
    "quantitative.result": 3.05
  },
  {
    "molecule": "NC(=O)[C@H]1O[C@H](CO)[C@@H](O)[C@H](O)[C@H]1O",
    "readout.label": "Exp Inhib Constant",
    "quantitative.result": 3.6
  },
  {
    "molecule": "OC[C@@H]1O[C@@](O)(CO)[C@@H](O)[C@@H](O)[C@@H]1O",
    "readout.label": "Exp Inhib Constant",
    "quantitative.result": 2.76
  },
  {
    "molecule": "NC(=O)[C@@H]1O[C@H](CO)[C@@H](O)[C@H](O)[C@H]1O",
    "readout.label": "Exp Inhib Constant",
    "quantitative.result": -1.61
  },
  {
    "molecule": "O=C(Nc1ccc(O)cc1)C1OC(CO)C(O)C(O)C1O (configuration not stated)",
    "readout.label": "Exp Inhib Constant",
    "quantitative.result": 1.72
  },
  {
    "molecule": "OCC1OC(S)C(O)C(O)C1O (configuration not stated)",
    "readout.label": "Exp Inhib Constant",
    "quantitative.result": 0
  },
  {
    "molecule": "[N-]=[N+]=NC[C@H]1O[C@H](CO)[C@@H](O)[C@H](O)[C@H]1O",
    "readout.label": "Exp Inhib Constant",
    "quantitative.result": 3.11
  },
  {
    "molecule": "OCc1ccccc1O[C@H]1O[C@H](CO)[C@@H](O)[C@H](O)[C@H]1O",
    "readout.label": "Exp Inhib Constant",
    "quantitative.result": 2.15
  },
  {
    "molecule": "OCC1OC(CO)C(O)C(O)C1O (stereo in doubt; 10)",
    "readout.label": "Exp Inhib Constant",
    "quantitative.result": 3.09
  },
  {
    "molecule": "O[C@@H]1[C@@H](O)[C@@H](O)O[C@H](CS)[C@H]1O",
    "readout.label": "Exp Inhib Constant",
    "quantitative.result": 0.69
  },
  {
    "molecule": "N#CC[C@@H]1O[C@H](CO)[C@@H](O)[C@H](O)[C@H]1O",
    "readout.label": "Exp Inhib Constant",
    "quantitative.result": 2.2
  },
  {
    "molecule": "CS(=O)(=O)OCC1OC(CO)C(O)C(O)C1O (configuration not stated)",
    "readout.label": "Exp Inhib Constant",
    "quantitative.result": 1.57
  },
  {
    "molecule": "NCC1OC(CO)C(O)C(O)C1O (stereo in doubt; 14)",
    "readout.label": "Exp Inhib Constant",
    "quantitative.result": 3.54
  }
]
